Measured values drawn from the supplement of paper PMC9170038 for this set.

# Tested on: K4 kissing-loop RNA reporter
# test-protocol: apparent KD of K4 kissing-loop reporter; higher = weaker reporter binding
# protocol-conditions: Eterna round: R107; input ligand: FMN 200 uM
Catalogue of apparent KD of K4 kissing-loop reporter readings, one per entry.

residue-string	units	apparent KD of K4 kissing-loop reporter
GGAAAUUGAUCAACGCAGUGAUGUUGCGAUACCAGACACAAAGCCGUCCCUUGGCAGCGCGGGACAUUAAUGGAUCUAUGGGUUC [theeternabot_exclusion_KL_Theo_A_26]	nM	68.5
GCAUGAUAGUAAGGAUAUAGAUAAUCCUUAUAUAUAUCGAGUGAUGUUCGAUGUGCCAAGGUACAUCUAGAAGGUACUGUAAGGU [Same State FMN B GF 17]	nM	265
AUGUAUGAAUUAGGAUAUCGUGAGCUUUGCAUAUAUAUGAUAAAUGGAUAUGUCGUAGUGAUGUUACGAGAAGGAGUGUGGAGUA [KL-XFMN-B3]	nM	52.4
UGCUUUAUCAGAAGGAGCGCGUUAUUCAUAAUAAUAAUCAGUGAUGUUGAUAUAUGAUGAUUGCAGGUAGGUCGCUGAUAUAGCU [KL-XARG-B3]	nM	310
AAUUUAUUAACUGAUACCAGACUUUAGCGUGUUUAUAAGUCAAGUGAUGUUUGACUAUUAGUCCCUUGGCAGCAGUAUUUAUUAA [JR_SSTheophyB_Sub022]	nM	149
GAAUAAUAACAUGAGUGAUGUUCAUGUAAACGAGGACCGGUACGGCCGCCACUCGUUUCUCAUGUAAGCCGUACCAAUAACAAUA [KL-XTryp-A5 #analogue]	nM	146

###

Catalogue of apparent KD of K4 kissing-loop reporter readings, one per entry.
# System: K4 kissing-loop RNA reporter;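 note: bound reporter read as fluorescence of individual clusters on recovered sequencing chips by microscopy, with normalized cluster intensities fitted with a binding model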
# test-protocol: apparent KD of K4 kissing-loop reporter; higher = weaker reporter binding
# protocol-conditions: Eterna round: R107; input ligand: arginine 13.2 mM

residue-string	apparent KD of K4 kissing-loop reporter, nM
CAUAGGAAACUAUGUUCCUCUCUUACUGAAGGAGCGCGUGAAAACGCAGGUAGGUCGCAGGAUUUGAGAGUGAUGUUCUCAUUAA [Ex Arginine A K4 15]	260
GCUAUGGUAGGAAGGAGCGCUUACUCGGUAAUAAGAGUGAUGUUCGAUACCGAGUAUUUAUAGCAGGUAGGUCGCCUACUAUAGC [Arginine B K4 5]	209
UGACUGGACUGAAGGAGCGCGAAAACUCCUAGUGAUGUUAGGAAAACGAGACAAAGUCUCGCGCAGGUAGGUCGCAGUCUAGUCU [ArgBS 20 #SwitchBubble #StaticStem]	102
AAUACUAUCAGAAGGAGCGUGGAAUAUUCAUCUGUAUCUAAUACGAGUGAUGUUCGUAAUUCACAGGUAGGUCGCUGAUUAAUAC [whbob_Ex_Arginine_B_2th158]	245
AGUGUUGUAUGACGGUUUGUCACUUAGGAUCAGGAUAUAUAAACAAAUAGAAGGGAUGGCGGAGUGAUGUUCCGCCGGCCGCCAU [FMN A Exl V9]	101
GGAAAUUGAUCAACGCAGUGAUGUUGCGAUACCAGACACAAAGCCGUCCCUUGGCAGCGCGGGACAUUAAUGGAUCUAUGGGUUC [theeternabot_exclusion_KL_Theo_A_26]	113

###

# System: MS2 coat protein
# test-protocol: apparent KD of MS2 coat protein; designed switch direction (-1 OFF switch, 1 ON switch): -1; higher = weaker reporter binding
# protocol-conditions: input ligand: FMN 200 uM
Please note: label 1 applies when apparent KD of MS2 coat protein is 400 nM or greater, and label 0 applies otherwise.

residue-string	category-label
UCUGGUCGAGGAUAUACAUGAGGAUCACCCAUGUAGAUCAACCAGCGAUAGCUGGAAUGUAGAAGGCGACCAGA [E3/5-A3] (Eterna round: R97, puzzle: Exclusion 3)	label 0
GGACCAUAUCAGGAUAUGACUAGCCUCGGCUAGUCAGAAGGGAUGACAUGAGGAUCACCCAUGUGAUCAGGUCC [E6/1-C2] (Eterna round: R97, puzzle: Exclusion 6)	label 0
UGCAUGUCAGGAUAUAUUAGUACACUAGUCAGUCUAGGUGCGUAGAAGGGACAUGAGGAUCACCCAUGUGACAU [Eternabot (L2) Solution 1] (Eterna round: R97, puzzle: Exclusion 4)	label 0
ACAAGCUAAAUCAUAUCUUACAUGAGGAUCACCCAUGUUUUUGCAAUUAUGUUUGGCCUCCUUUGUGCUCGUCUUAU [JR_STOV1_Sub051] (Eterna round: R97, puzzle: Sensor, turn-off variant 1)	label 0
ACAUGAGGAUCACCCAUGUACUGGGUUUAGUUUCAUCGUUUGAAGGAUAUACUCCGUUAGUUGUCGUAGAAGGUCACAGUUUGG [JR_ExcNG3_Sub008] (Eterna round: R96, puzzle: Exclusion NG 3)	label 1
